Some binders, each annotated with its measured EC50.
molecular target: T1, human CD3 (human, UniProt P07766 23-207); assay: cell binding, human CD3, 50 nM SFA present
T1 construct: whole, on cells; also called CD3 on human T-cells
T1 sequence (P07766 23-207): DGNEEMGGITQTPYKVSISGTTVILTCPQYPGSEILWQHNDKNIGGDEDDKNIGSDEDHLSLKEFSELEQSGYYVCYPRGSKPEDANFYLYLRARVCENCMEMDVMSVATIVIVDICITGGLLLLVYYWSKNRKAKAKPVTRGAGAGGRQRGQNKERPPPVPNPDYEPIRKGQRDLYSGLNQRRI
Answer with a number only, understood to be in nM.

>  <BINDER>
Fab1-HK129-LL157-BiFolate-Bi5KPEG (Fab, V domains shown, pAF at LL157 (Kabat) conjugated to a bifunctional linker carrying folate and 5K PEG (oxime); pAF at HK129 (Kabat) conjugated to a bifunctional linker carrying folate and 5K PEG (oxime), From E. coli; carries two folates and two 5K PEG; also called Fab1-HK129-LL157-Bi5KPEG-BiFolate) VH: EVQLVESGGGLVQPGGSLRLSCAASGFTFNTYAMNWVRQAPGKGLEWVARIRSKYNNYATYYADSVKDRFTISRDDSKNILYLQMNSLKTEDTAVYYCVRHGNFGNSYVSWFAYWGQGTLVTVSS VL: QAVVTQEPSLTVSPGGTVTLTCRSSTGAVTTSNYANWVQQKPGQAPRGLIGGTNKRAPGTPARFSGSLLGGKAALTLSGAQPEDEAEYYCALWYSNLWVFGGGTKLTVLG

>  <EC50, nM>
7.5

$$$$

Next up:
Entry under review: Fab1-HK129-5KPEG-Folate (Fab, V domains shown, pAF at HK129 (Kabat) conjugated to a bifunctional linker carrying folate and a linear 5K PEG (oxime), From E. coli; also called Fab1-5KPEG-Folate) VH: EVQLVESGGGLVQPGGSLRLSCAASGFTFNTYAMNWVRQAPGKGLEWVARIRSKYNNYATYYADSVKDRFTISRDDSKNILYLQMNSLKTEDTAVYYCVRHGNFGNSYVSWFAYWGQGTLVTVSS VL: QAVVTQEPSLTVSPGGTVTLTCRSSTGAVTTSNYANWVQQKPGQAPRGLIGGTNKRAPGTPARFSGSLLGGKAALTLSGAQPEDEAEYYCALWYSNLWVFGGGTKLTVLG . Reported EC50?
5.27
